The values you see were collected from ChEMBL document CHEMBL1201861.

Test system: OVCAR-3;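 also: growth inhibition of human OVCAR-3 cells, determined by a cell viability assay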
Assay: cells
Format: functional, cell-based, Homo sapiens
Conditions: Homo sapiens, OVCAR-3
Description: SANGER: Inhibition of human OVCAR-3 cell growth in a cell viability assay.
Quantity: IC50

Cn1cc(C2=C(c3ccc(Cl)cc3Cl)C(=O)NC2=O)c2ccccc21	> 10 µM
O=c1cc(-c2cccc3c2Sc2ccccc2S3)oc(N2CCOCC2)c1	> 10 µM
CCOc1nc(NC(=O)Cc2cc(OC)ccc2OC)cc(N)c1C#N	> 10 µM

====

Tested on: P31-FUJ;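 also: growth inhibition of P31-FUJ cells, read out with a viability assay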
Assay: cells
Format: functional, cell-based
Details: Homo sapiens
Description: SANGER: Inhibition of human P31-FUJ cell growth in a cell viability assay.
pIC50: −log10 of the molar value.
The entries below come with measured pIC50 values attached.
Quantity: pIC50

COC(=O)CNC(=O)C(=O)OC	< 2.40
C=CCc1cccc(/C=N/NC(=O)CN2CCN(Cc3ccccc3)CC2)c1O	< 5.59
CC1=C2C[C@H]3[C@@H](CC=C4C[C@@H](O)CC[C@@]43C)[C@@H]2CC[C@]12O[C@@H]1C[C@H](C)CN[C@H]1[C@H]2C	< 4.80
